target: corticotropin releasing factor 1 receptor
experiment_notes: cell-based or functional assay
Ends that are not written are not given here.
quantity_kind: CRF1R EC50 (nM)
Only the number, expressed in nM, is required.

Query: # get_value(readout='CRF1R EC50', item= ZGPPISIDLPQYLLRKMIEIEKQEKEKQQAANNALLLDTI (C-terminal amide) [SEQ ID NO 224] )
Reply: 1000

Query: # iterate: ZGPPISIDLPFQLLRKVIEIEKQEKEKQQAANNAQLLAQI (C-terminal amide) [SEQ ID NO 276]
Reply: 1000

Query: Also PSLSIDLPLFLLRTLLELEKTQSQRERAEQNARIFARV-NH2 [SEQ ID NO 331] ?
Reply: 1000
